- Procedure details: Kinetic solubility in pH 7.4 PBS incubated for 1 hr
- Format: physicochemical
- Experimental context: PBS, pH 7.4, read-out: Kinetic_solubility
Measure: solubility kinetic at 1 h

Q. Given "C/C(=N\Cc1ccncc1)c1c(O)c2ccccc2oc1=O" , respond with its solubility kinetic at 1 h.
A. > 400 µM

###

- Procedure details: Competitive binding affinity to skeletal myosin S1 (unknown origin) assessed as reduction in Blebbistatin-induced fluorescence intensity incubated for 1 hr by fluorescence based assay
- Set-up: species or system Homo sapiens
Measure: pKi
Please express pKi as -log10 of the molar concentration.

Q. Given "C/C(=N\Cc1ccccc1)c1c(O)c2ccccc2oc1=O" , respond with its pKi.
A. 6.10
